Values were extracted from patent US20150087627A1.

I'd appreciate it if you could supply IC50 values for the items below.
- ASSAYED TARGET: PI3K α (p110α/p85α) (Homo sapiens)
- Construct: purchased Upstate / Millipore Corporation
- Sequence (P42336 whole entry): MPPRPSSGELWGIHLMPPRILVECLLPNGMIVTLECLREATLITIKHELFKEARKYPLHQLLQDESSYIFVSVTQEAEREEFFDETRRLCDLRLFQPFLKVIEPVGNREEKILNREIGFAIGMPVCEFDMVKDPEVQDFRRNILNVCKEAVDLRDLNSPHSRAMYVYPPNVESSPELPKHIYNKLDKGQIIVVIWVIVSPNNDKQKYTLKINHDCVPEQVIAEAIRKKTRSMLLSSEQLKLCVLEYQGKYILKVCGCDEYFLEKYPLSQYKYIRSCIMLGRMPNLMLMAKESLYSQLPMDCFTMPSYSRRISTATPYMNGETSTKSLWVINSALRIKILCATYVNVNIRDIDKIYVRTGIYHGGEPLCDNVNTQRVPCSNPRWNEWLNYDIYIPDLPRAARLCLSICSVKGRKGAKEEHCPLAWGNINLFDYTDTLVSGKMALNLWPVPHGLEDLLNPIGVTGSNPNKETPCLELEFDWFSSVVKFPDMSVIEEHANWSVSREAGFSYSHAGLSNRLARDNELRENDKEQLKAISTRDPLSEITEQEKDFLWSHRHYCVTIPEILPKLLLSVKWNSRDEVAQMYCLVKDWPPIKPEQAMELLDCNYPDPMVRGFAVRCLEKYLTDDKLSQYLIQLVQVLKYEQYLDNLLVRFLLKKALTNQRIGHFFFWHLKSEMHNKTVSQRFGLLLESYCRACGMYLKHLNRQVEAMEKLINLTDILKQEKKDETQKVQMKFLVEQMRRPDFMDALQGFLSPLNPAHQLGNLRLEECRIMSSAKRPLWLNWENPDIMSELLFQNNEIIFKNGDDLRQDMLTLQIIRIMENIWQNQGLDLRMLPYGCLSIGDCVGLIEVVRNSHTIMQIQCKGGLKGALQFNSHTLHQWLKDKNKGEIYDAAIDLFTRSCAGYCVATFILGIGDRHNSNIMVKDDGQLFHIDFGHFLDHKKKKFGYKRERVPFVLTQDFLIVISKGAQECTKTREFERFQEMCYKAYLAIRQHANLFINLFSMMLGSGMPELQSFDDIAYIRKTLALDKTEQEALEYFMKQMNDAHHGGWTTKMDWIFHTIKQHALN
- Sequence (P27986 whole entry partner): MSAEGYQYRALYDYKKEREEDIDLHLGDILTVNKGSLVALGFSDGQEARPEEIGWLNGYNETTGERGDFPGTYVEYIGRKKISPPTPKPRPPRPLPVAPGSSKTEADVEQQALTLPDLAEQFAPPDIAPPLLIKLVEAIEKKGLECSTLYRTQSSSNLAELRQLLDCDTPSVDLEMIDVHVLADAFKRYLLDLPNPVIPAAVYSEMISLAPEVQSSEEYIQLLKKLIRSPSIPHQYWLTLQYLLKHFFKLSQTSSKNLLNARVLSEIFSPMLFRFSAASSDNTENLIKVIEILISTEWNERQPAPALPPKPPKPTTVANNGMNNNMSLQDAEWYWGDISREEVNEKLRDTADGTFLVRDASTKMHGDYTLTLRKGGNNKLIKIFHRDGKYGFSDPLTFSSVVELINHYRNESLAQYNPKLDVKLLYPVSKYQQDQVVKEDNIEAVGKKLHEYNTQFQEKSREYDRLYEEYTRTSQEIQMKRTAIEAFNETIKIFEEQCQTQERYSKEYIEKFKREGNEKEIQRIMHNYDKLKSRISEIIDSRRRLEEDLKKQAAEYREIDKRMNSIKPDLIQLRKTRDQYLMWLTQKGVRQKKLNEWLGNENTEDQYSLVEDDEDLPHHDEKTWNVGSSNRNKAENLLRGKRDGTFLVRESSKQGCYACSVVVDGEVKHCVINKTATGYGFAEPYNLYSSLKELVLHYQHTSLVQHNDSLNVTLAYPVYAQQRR
- PROTOCOL NOTES: PI 3-Kinase (human) HTRF assay, PI3K α
- Type: biochemical
- RUN CONDITIONS: read-out: PI3K α IC50

Data request: # return recorded IC50 for entry CS(=O)(=O)CCN1CCN(c2cnc3ccc(-c4ccc5oc(N)nc5c4)cc3n2)CC1
Data returned: < 100 nM

Data request: # return recorded IC50 for entry Nc1nc2cc(-c3ccc4ncc(N5CC(N6CCOCC6)C5)nc4c3)cc(F)c2o1
Data returned: < 100 nM

Data request: # return recorded IC50 for entry CC(=O)N1CCC(n2cnc3ccc(-c4ccc5oc(N)nc5c4)cc3c2=O)CC1
Data returned: < 10000 nM

Data request: # return recorded IC50 for entry Nc1nc2cc(-c3ccc4ncc(N5CC(N6CCOCC6)C5)nc4c3)c(F)cc2o1
Data returned: < 100 nM

Data request: # return recorded IC50 for entry CN1CCC(Nc2ncnc3ccc(-c4ccc5oc(N)nc5c4)nc23)CC1
Data returned: < 100 nM

Data request: # return recorded IC50 for entry Nc1nc2cc(-c3ccc4ncn(CCCN5CCCC5)c(=O)c4c3)ccc2o1
Data returned: < 1000 nM

Data request: # return recorded IC50 for entry Nc1nc2cc(-c3ccc4nnc(-c5ccncc5)n4c3)ccc2o1
Data returned: < 1000 nM

Data request: # return recorded IC50 for entry Nc1nc2cc(-c3ccc4ncc(N5CCCCC5)nc4c3)ccc2o1
Data returned: < 100 nM

Data request: # return recorded IC50 for entry Nc1nc2cc(-c3ccc4nccc(NC5CCOCC5)c4c3)ccc2o1
Data returned: < 10000 nM
